SARS-CoV-2 B.1.351 variant: reported SI (CC50/IC50), SARS-CoV-2 B.1.351 for various compounds.

Task: Item CN1CCN(CCCN2c3ccccc3Sc3ccc(C(F)(F)F)cc32)CC1 [Trifluoperazine] has what recorded SI (CC50/IC50), SARS-CoV-2 B.1.351?
Result: 13.25

Task: And then CNC(=O)c1cc(Oc2ccc(NC(=O)Nc3ccc(Cl)c(C(F)(F)F)c3)cc2)ccn1 [Sorafenib] , what is it?
Result: 7.6

Task: And what about the compound COc1ccc2cc1Oc1ccc(cc1)C[C@H]1c3c(cc4c(c3Oc3cc5c(cc3OC)CCN(C)[C@@H]5C2)OCO4)CCN1C [Cepharanthine] ?
Result: 128.83

Task: Now consider COc1cc2c(cc1OC)[C@@H]1C(=O)c3ccc4c(c3O[C@@H]1CO2)C=CC(C)(C)O4 [Deguelin] .
Result: 7.44

###

System: SARS-CoV-2 B.1.351 variant
assay-method-text: microbe, parasite or virus in culture
stated-conditions: Severe acute respiratory syndrome coronavirus 2, A549-ACE2, 48 h, read-out: IC50, SARS-CoV-2 B.1.351
reported-endpoint: pIC50
A value of pIC50 is the negative decimal logarithm of a concentration given in moles per litre.

Task: // lookup pIC50 | system=SARS-CoV-2 B.1.351 variant | key= CN1CCN(CCCN2c3ccccc3Sc3ccc(C(F)(F)F)cc32)CC1
Result: 5.55

Task: One more compound: CNC(=O)c1cc(Oc2ccc(NC(=O)Nc3ccc(Cl)c(C(F)(F)F)c3)cc2)ccn1
Result: 5.77

Task: # repeat for COc1cc2c(cc1OC)[C@@H]1C(=O)c3ccc4c(c3O[C@@H]1CO2)C=CC(C)(C)O4
Result: 5.33

Task: Now the same for COc1ccc2cc1Oc1ccc(cc1)C[C@H]1c3c(cc4c(c3Oc3cc5c(cc3OC)CCN(C)[C@@H]5C2)OCO4)CCN1C
Result: 6.62
